Data provenance is ChEMBL document CHEMBL3407342.

# experiment: Selectivity index, ratio of IC50 for human HeLa cells to IC50 for blood stage forms of multidrug-resistant Plasmodium falciparum Dd2
# Format: toxicity, cell-based
# particulars: HeLa cells versus blood stage Plasmodium falciparum Dd2, read-out: Ratio IC50
selectivity ratio reference
Answer as a number with no unit attached.

1. CCCCOC(=O)OCOP(=O)(OCOC(=O)OCCCC)C(OCC(=O)N(C)O)c1ccc(F)c(F)c1 (configuration not stated)
21100
2. CCNC(=O)ON(C)C(=O)CCC(c1ccc(F)c(F)c1)P(=O)(OCOC(=O)OC(C)C)OCOC(=O)OC(C)C (configuration not stated)
14000
3. CCOC(=O)ON(C)C(=O)CCC(c1ccc(F)c(F)c1)P(=O)(OCOC(=O)OC(C)C)OCOC(=O)OC(C)C (configuration not stated)
11400
4. CC(=O)ON(C)C(=O)CCC(c1ccc(F)c(F)c1)P(=O)(OCOC(=O)OC(C)C)OCOC(=O)OC(C)C (configuration not stated)
23500

Reported selectivity ratio of CCCCOC(=O)OCOP(=O)(OCOC(=O)OCCCC)C(CCC(=O)N(C)O)c1ccc(F)c(F)c1 (configuration not stated) : 38000

###

IC50 reference
# System: Plasmodium falciparum
# experiment: Antiplasmodial activity against blood stage forms of multidrug-resistant Plasmodium falciparum Dd2 incubated for 3 days by HRP2 detection based ELISA method
# Assay type: functional, organism-based
# particulars: Dd2, 72 h
Response body: numeric value in nM, unit text excluded.

Example compounds with recorded IC50:
1. CC(=O)ON(C)C(=O)CCC(c1ccc(F)c(F)c1)P(=O)(OCOC(=O)OC(C)C)OCOC(=O)OC(C)C (centres undefined)
8
2. CCCCOC(=O)OCOP(=O)(OCOC(=O)OCCCC)C(CCC(=O)N(C)O)c1ccc(F)c(F)c1 (centres undefined)
5
3. CCOC(=O)ON(C)C(=O)CCC(c1ccc(F)c(F)c1)P(=O)(OCOC(=O)OC(C)C)OCOC(=O)OC(C)C (centres undefined)
18

Reported IC50 of `CC(=O)N(O)CCCP(=O)(O)O` : 160

Reported IC50 of `CC(C)(C)C(=O)OCOP(=O)(CCCN(O)C=O)OCOC(=O)C(C)(C)C` : 490

Reported IC50 of O=C(CCC(c1ccc(F)c(F)c1)P(=O)(O)O)NO (centres undefined) : 650

Reported IC50 of `CC(=O)N(O)CCCP(=O)(OCOC(=O)C(C)(C)C)OCOC(=O)C(C)(C)C` : 28

Reported IC50 of CCCCOC(=O)OCOP(=O)(OCOC(=O)OCCCC)C(CCC(=O)NO)c1ccc(F)c(F)c1 (centres undefined) : 9

Reported IC50 of CCCCOC(=O)OCOP(=O)(OCOC(=O)OCCCC)C(OCC(=O)N(C)O)c1ccc(F)c(F)c1 (centres undefined) : 9

###

# Tested on: Plasmodium falciparum
# experiment: Antiplasmodial activity against blood stage forms of chloroquine-sensitive Plasmodium falciparum 3D7 incubated for 3 days by HRP2 detection based ELISA method
# Type: functional, organism-based
# particulars: 3D7, 72 h
reported_endpoint: pIC50
Please express pIC50 as -log10 of the molar concentration.

Example compounds with recorded pIC50:
1. CC(C)OC(=O)OCOP(=O)(OCOC(=O)OC(C)C)C(CCC(=O)NO)c1ccc(F)c(F)c1 (stereo not drawn)
7.31
2. CC(C)OC(=O)OCOP(=O)(OCOC(=O)OC(C)C)C(OCC(=O)N(C)O)c1ccc(F)c(F)c1 (stereo not drawn)
7.46
3. CCOC(=O)ON(C)C(=O)CCC(c1ccc(F)c(F)c1)P(=O)(OCOC(=O)OC(C)C)OCOC(=O)OC(C)C (stereo not drawn)
7.55
4. CC(C)(C)C(=O)OCOP(=O)(CCCN(O)C=O)OCOC(=O)C(C)(C)C
6.32
5. CC(=O)N(O)CCCP(=O)(O)O
6.80
6. CC(C)OC(=O)OCOP(=O)(OCOC(=O)OC(C)C)C(CCC(=O)N(C)O)c1ccc(F)c(F)c1 (stereo not drawn)
8.10

Reported pIC50 of CC(=O)ON(C)C(=O)CCC(c1ccc(F)c(F)c1)P(=O)(OCOC(=O)OC(C)C)OCOC(=O)OC(C)C (stereo not drawn) : 7.89

Reported pIC50 of CC(C)OC(=O)OCOP(=O)(OCOC(=O)OC(C)C)C(CCC(=O)N(C)OC(=O)C(C)(C)C)c1ccc(F)c(F)c1 (stereo not drawn) : 7.37

Reported pIC50 of CCNC(=O)ON(C)C(=O)CCC(c1ccc(F)c(F)c1)P(=O)(OCOC(=O)OC(C)C)OCOC(=O)OC(C)C (stereo not drawn) : 7.85

Reported pIC50 of CCCCOC(=O)OCOP(=O)(OCOC(=O)OCCCC)C(CCC(=O)NO)c1ccc(F)c(F)c1 (stereo not drawn) : 7.41

Reported pIC50 of CCCCOC(=O)OCOP(=O)(OCOC(=O)OCCCC)C(CCC(=O)N(C)O)c1ccc(F)c(F)c1 (stereo not drawn) : 7.89

Reported pIC50 of CCCCOC(=O)OCOP(=O)(OCOC(=O)OCCCC)C(OCC(=O)N(C)O)c1ccc(F)c(F)c1 (stereo not drawn) : 7.85

Reported pIC50 of `CC(=O)N(O)CCCP(=O)(OCOC(=O)C(C)(C)C)OCOC(=O)C(C)(C)C` : 7.39
